Experiment: NCI Yeast Anticancer Drug Screen. Data for the mlh1 rad18 strain (AID 175)
Conditions: S. cerevisiae mlh1 rad18 strain growth inhibition; at 50.0 µM (retest, dose inferred, filed as 5.0); stronger effect = higher value
Compounds without any hit were thinned out: in the full panel of roughly 79,000, 15% have a hit.
Each record here notes measured growth inhibition.
# output: bare number, implied unit %

Look up growth inhibition for this compound: Nc1ccc(Br)cc1C(=O)c1ccccc1
95

====

Experiment: NCI Yeast Anticancer Drug Screen. Data for the mec2-1 strain (AID 157)
Settings: S. cerevisiae mec2-1 strain, at 5.0 µM (retest, dose inferred, filed as 0.5)
The panel holds about 79,000 compounds, 15% with a hit somewhere; the sample as a whole holds those more often. Activity calls are given as the source filed them. Cut-off read from the data, not from the text of the source: active = growth inhibition above about 70%; inactive = the rest.
# valid calls are Yes (active), No (inactive); nothing else

Below, 2 compounds whose answers are already recorded.
Compound | Classification
S=P(Nc1ccc(Cl)cc1)(Nc1ccc(Cl)cc1)c1ccccc1 | No
[Cl][Pt+2][Cl].[NH-]c1ccc([N+](=O)[O-])cc1[NH-] | No

Continue with the compound presented below.
Tell me the assay call for Clc1nc(Cl)nc(Nc2ccccc2Cl)n1 please.
No
